# ASSAY TEXT: Human HepG2 cell viability assay in 384 well format
# Format: toxicity, cell-based
# Set-up: dose 125 nL, time 70.5 hour; concentration not given beside the values
# CONDITION: HepG2 cells, read-out: Inhibition
I'd appreciate it if you could supply cytotoxicity at 70.5 h values for the items below.
Answers are plain numbers, in %.

COc1cn(CC(=O)N2CCC(c3ccccc3)CC2)c(C)cc1=O | 23.7
CC(C)CCn1[nH]c(CNc2ccccc2)nc1=O | -10.8
Cn1nc(CNC(=O)C2CCN(S(C)(=O)=O)CC2)cc1C1CC1 | -3.55
COc1ccc(OC)c(CNCc2ccnc(N3CCCCC3)c2)c1 | -8.18
Cc1csc(C2CCCN(C(=O)c3c(C)nn4cccnc34)C2)n1 (stereo not drawn) | -4.25
CN(C)S(=O)(=O)c1csc(C(=O)N2CCC(C(N)=O)CC2)c1 | -7.56
CCn1cc2c(n1)CN(Cc1cnn(C)c1)CC2COCC1CC1 (stereo not drawn) | -11.6

Switching to the query record.
Exam item: # get_value(readout='cytotoxicity at 70.5 h', item= "Cn1c(C(F)(F)F)nn(CCNC(=O)CSCc2ccccc2)c1=O" )
Marked response: 0.995

----------
Give cytotoxicity at 70.5 h for every item shown.
# ASSAY TEXT: Human HepG2 cell viability assay in 384 well format
# Type: toxicity, cell-based
# Parameters: dose 125 nL, time 70.5 hour; concentration not given beside the values
# CONDITION: HepG2 cells, read-out: Inhibition
Answers are plain numbers, in %.

// known answers, use as guide
Cc1ccccc1-n1cnc(Cl)c1CO | 18.4
O=C(c1cc(-c2cccs2)cs1)N1CCSCC1 | -5.68
CC(=O)NCc1cc2n(n1)CCN(Cc1cccc(CCN)c1)C2 | -2.57

// for each compound below, give its cytotoxicity at 70.5 h
1. CCc1cnc(N2CCc3cc(C(=O)NC)c(N(C)C)nc3CC2)nc1
2. COc1cc2[nH]c(=O)c(CN3CCC[C@H]3CO)cc2c(OC)c1OC
3. CNCc1cnc(Nc2ccccc2)nc1

Marked response:
1. -13.6
2. 14
3. -5.59

----------
# ASSAY TEXT: Human HepG2 cell viability assay in 384 well format
# Format: toxicity, cell-based
# Parameters: dose 125 nL, time 70.5 hour; concentration not given beside the values
# CONDITION: HepG2 cells, read-out: Inhibition
ASSAY METRIC: cytotoxicity at 70.5 h (%)
Numbers only, in %.

FC(F)(F)c1cccnc1N1CCC(OC2CCOCC2)CC1 | -6.19
O=C(CNCCn1cccn1)NCC1(c2ccccc2)CCOCC1 | -7.33
CC(=O)N1CCN(C(=O)CN(C)c2ccc(Cl)cn2)CC1 | -10.3
CCc1nc(C2CCCN(C(=O)CN(C)S(C)(=O)=O)C2)no1 (stereo not given) | 3.45
CCn1c(C)nnc1CN(C)C1CCN(CCc2cccs2)C1 (stereo not given) | 10.5

Please give cytotoxicity at 70.5 h for each item listed below.
1. CCn1cnnc1C1CCN(C(=O)c2cc3c(s2)CCOC3)CC1
2. COc1cc(CNC(=O)Nc2nncs2)ccc1O
3. CCn1ncc2c1C(COCC1CC1)CN(C(=O)c1cccs1)C2 (stereo not given)
4. CC(NC(=O)N(C)Cc1ccsc1)c1ccc2c(c1)CCC(=O)N2 (stereo not given)

Marked response:
1: -9.84; 2: -1.98; 3: 6.27; 4: -3.94

Exam item: Name the recorded cytotoxicity at 70.5 h for COc1cccc(C2SCC(=O)Nc3n[nH]cc32)c1OC(C)C (stereo not given) .
Marked response: -20.4

----------
Would you kindly list cytotoxicity at 70.5 h for each of these molecules?
# ASSAY TEXT: Human HepG2 cell viability assay in 384 well format
# Type: toxicity, cell-based
# Parameters: dose 125 nL, time 70.5 hour; concentration not given beside the values
# CONDITION: HepG2 cells, read-out: Inhibition
One number for each entry, in %.

Please review the following examples before continuing.
Cc1cnc(C(=O)N2C[C@H]3CN(Cc4nccs4)C[C@H]3C2)cn1 | -5.82
COCC(=O)Nc1ccc(N2CCC(OC)CC2)c(C(F)(F)F)c1 | -0.835
Fc1ccc(CN2CC[C@H]3O[C@@H](COCc4cccnc4)CC[C@H]32)cc1 | -6.39
CS(=O)(=O)N1CCCN(C(=O)c2ccc(Cn3ccccc3=O)o2)CC1 | -7.8
COc1ccccc1N1CCN(C(=O)CCCS(N)(=O)=O)C(C)C1 (stereo not drawn) | -5.3
Cn1nc(-c2cccs2)cc1[C@H]1CN2CC[C@H]1C[C@@H]2CNS(C)(=O)=O | -6.43

Provide the reported cytotoxicity at 70.5 h of each entry below, same order.
1. CCS(=O)(=O)N1CCC2(CN(c3cc(OC)ncn3)C2)C1
2. Cc1cc(=O)n2c(n1)SCC2CC(=O)NCc1cc(-c2ccco2)on1 (stereo not drawn)
3. CN(C)C(=O)CN1C[C@H]2CCN(C(=O)C3CCCO3)CC[C@H]2S1(=O)=O (stereo partly drawn)
4. Cc1noc([C@H]2C[C@H]3OCC[C@H]3N(Cc3ccc(F)cc3)C2)n1
5. Cc1ccc(NCc2cccc3cn[nH]c23)cc1OC1CCOC1 (stereo not drawn)

Marked response:
[12.1, -9.17, -4.76, -8.23, -0.654]

Below are 2 molecules. Give each one its cytotoxicity at 70.5 h.
1. Cc1ccc2c(CC(=O)N(C)CCN(C)C)c(C)[nH]c2c1C
2. Cc1oncc1NS(=O)(=O)c1c[nH]c2ncccc12

Marked response:
2.2
-3.88

----------
# ASSAY TEXT: Human HepG2 cell viability assay in 384 well format
# Type: toxicity, cell-based
# Design: dose 125 nL, time 70.5 hour; concentration not given beside the values
# CONDITION: HepG2 cells, read-out: Inhibition
ASSAY METRIC: cytotoxicity at 70.5 h (%)
Answers are plain numbers, in %.

Cc1cc(C)n(CC2CCCN2C(=O)c2cccc3c2OCO3)n1 (centres undefined) | -3.49
Fc1ccccc1Cc1noc(CN2CCCC(CN3CCCC3)C2)n1 (centres undefined) | -2.47
CNC(=O)C1Cn2ccnc2C2(CCN(C(=O)NC3CCCC3)CC2)O1 (centres undefined) | -9.83
Cn1cccc1C(O)CNS(=O)(=O)c1ccccc1Br (centres undefined) | -0.453
CCc1nc(CCNC(=O)NC2CCC(=O)N(C)C2)sc1C (centres undefined) | -8.41
O=C(c1cccs1)N1CCCC2(COCCN(c3cccnc3)C2)C1 (centres undefined) | -6.3
CCc1noc(CN2CCN(Cc3cccs3)CC2)n1 | -10
CCC(CC)NC(=O)c1ccc2nnc(C3CCN(C(C)=O)C3)n2c1 (centres undefined) | 5.94

List reported cytotoxicity at 70.5 h for each of these compounds:
1. O=C(NCc1cccnc1N1CCCCC1)c1ccc2[nH]nnc2c1
2. CCc1nc(C)c(C(=O)N2CCNCC2C(=O)NCc2ccncc2)o1 (centres undefined)
3. CCN1CC(C(=O)N2CCc3cc(C(=O)N(C)C)n(C)c3C2)CCC1=O (centres undefined)
4. Cc1cc(N[C@H](CO)COCc2ccccc2)n2nc(C)cc2n1
5. Cn1ncnc1NS(=O)(=O)c1ccc(F)cc1
6. Cc1nc(-c2cccc(C(=O)N(C)C)c2)cs1
7. O=C(COc1ccccc1Cl)N1CCCC(n2ccnc2)C1 (centres undefined)

Marked response:
[41.6, -5.31, -6.7, -0.86, -0.583, 1.56, -2.83]

Give me cytotoxicity at 70.5 h for each of these compounds, listed below.
1. COc1ccc2c(C)nc(N3CCN([C@H]4CCCC[C@@H]4O)CC3)nc2c1
2. Cc1nc(C)n(CC2CCCN(CCOc3ccccc3C#N)C2)n1 (centres undefined)
3. CCOc1ncnc2c1CCN(S(=O)(=O)CC)CC2
4. O=C(Nc1ccccn1)C1CCN(Cc2cc3c(cc2O)OCO3)CC1
5. Cc1nc2c(c(=O)[nH]1)CN(C(=O)CCC1CCCN(C)C1)C2 (centres undefined)
6. CC1CCCN(c2ccccc2OCC(=O)N2CCOCC2)C1 (centres undefined)
7. COC(=O)C1CN(CC(=O)Nc2ccccc2Cl)c2ccccc21 (centres undefined)

Marked response:
[18.8, 18.8, 14.3, 3.83, -4.89, 17.5, -5.02]

Hi team, please reply with cytotoxicity at 70.5 h for each item in this list.
1. CC(=O)N1CC[C@@H]2CN(C(=O)c3ccco3)CCO[C@@H]2C1
2. O=C(NC1CC1)[C@H]1CC[C@@H]2[C@@H](CCN2CCOCc2ccccc2)O1
3. CCCN1CCC(CNC(=O)N2CCCC2c2c(C)n[nH]c2C)CC1 (centres undefined)
4. c1cnn(Cc2cnc3n2CCN(CC2CCCCC2)C3)c1
5. COc1cccc(C(=O)NCCCN2CCc3ccccc3C2)c1OC
6. Cc1cnc(N2CCOC3(CCCN(C(=O)C(C)C)C3)C2)nc1 (centres undefined)

Marked response:
[-29.3, -8.73, 3.87, -6.48, -11.3, -3.83]
